- Tested on: KB
- test-details: Cytotoxicity against human KB cells after 48 hrs by neutral red assay
- Assay type: functional, cell-based
- measurement-parameters: Homo sapiens, KB, 48 h; read-out: IC50
measurement-name: IC50 (nM)
Please reply with the bare figure in nM and do not write the unit itself.

// solved cases for IC50 follow
compound: C[C@H]1[C@@H](OCC(O)CO[C@H]2O[C@@H]3O[C@@]4(C)CC[C@H]5[C@H](C)CC[C@@H]([C@H]2C)[C@@]35OO4)O[C@@H]2O[C@@]3(C)CC[C@H]4[C@H](C)CC[C@@H]1[C@@]24OO3 (some centres undefined)
endpoint-unit: nM
IC50: 260

compound: C[C@H]1[C@@H](OC/C=C\CO[C@H]2O[C@@H]3O[C@@]4(C)CC[C@H]5[C@H](C)CC[C@@H]([C@H]2C)[C@@]35OO4)O[C@@H]2O[C@@]3(C)CC[C@H]4[C@H](C)CC[C@@H]1[C@@]24OO3
endpoint-unit: nM
IC50: 320

compound: C[C@H]1[C@@H](OCC[C@H](O)CO[C@H]2O[C@@H]3O[C@@]4(C)CC[C@H]5[C@H](C)CC[C@@H]([C@H]2C)[C@@]35OO4)O[C@@H]2O[C@@]3(C)CC[C@H]4[C@H](C)CC[C@@H]1[C@@]24OO3
endpoint-unit: nM
IC50: 160

Next item in the queue.
Request body: readout IC50, system KB, query C=C[C@@H](CO[C@H]1O[C@@H]2O[C@@]3(C)CC[C@H]4[C@H](C)CC[C@@H]([C@H]1C)[C@@]24OO3)O[C@H]1O[C@@H]2O[C@@]3(C)CC[C@H]4[C@H](C)CC[C@@H]([C@H]1C)[C@@]24OO3 . Return the value.
270
